Values were extracted from the NIST ThermoML archive (doi:10.1021/je700176d).

Conditions: 343 K; 101.33 kPa; Liquid; transient hot wire
Parameter measured: thermal conductivity (W/m/K)

CCCCCC[n+]1ccn(C)c1.O=S(=O)([N-]S(=O)(=O)C(F)(F)F)C(F)(F)F: 0.125
CCCC[n+]1ccn(C)c1.O=S(=O)([N-]S(=O)(=O)C(F)(F)F)C(F)(F)F: 0.124
CCOS(=O)(=O)[O-].CCn1cc[n+](C)c1 [1-ethyl-3-methylimidazolium ethyl sulfate]: 0.178
CCCCCCCCCCCCCC[P+](CCCCCC)(CCCCCC)CCCCCC.O=S(=O)([N-]S(=O)(=O)C(F)(F)F)C(F)(F)F: 0.14
CCCCCCCCCCCCCC[P+](CCCCCC)(CCCCCC)CCCCCC.[Cl-] [trihexyl(tetradecyl)phosphonium chloride]: 0.156
CCCCCCCCCCn1cc[n+](C)c1.O=S(=O)([N-]S(=O)(=O)C(F)(F)F)C(F)(F)F: 0.128
CCCC[N+]1(C)CCCC1.FC(F)(F)C(F)(F)[P-](F)(F)(F)(C(F)(F)C(F)(F)F)C(F)(F)C(F)(F)F: 0.105
CCCCCCCCn1cc[n+](C)c1.O=S(=O)([N-]S(=O)(=O)C(F)(F)F)C(F)(F)F: 0.125
CCCCn1cc[n+](C)c1.O=S(=O)([O-])C(F)(F)F [1-butyl-3-methylimidazolium trifluoromethanesulfonate]: 0.143
CCn1cc[n+](C)c1.O=S(=O)([N-]S(=O)(=O)C(F)(F)F)C(F)(F)F: 0.129

====

Here, each record is paired with measured thermal conductivity data.
Details: 293 K; 101.33 kPa; Liquid; transient hot wire
Parameter measured: thermal conductivity (W/m/K)

CCCC[n+]1ccn(C)c1.O=S(=O)([N-]S(=O)(=O)C(F)(F)F)C(F)(F)F: 0.128
CCCC[N+]1(C)CCCC1.O=S(=O)([N-]S(=O)(=O)C(F)(F)F)C(F)(F)F: 0.125
CCCCCCCCCCCCCC[P+](CCCCCC)(CCCCCC)CCCCCC.O=S(=O)([N-]S(=O)(=O)C(F)(F)F)C(F)(F)F: 0.144
CCCCCC[n+]1ccn(C)c1.O=S(=O)([N-]S(=O)(=O)C(F)(F)F)C(F)(F)F: 0.127
CCCCCCCCCCCCCC[P+](CCCCCC)(CCCCCC)CCCCCC.[Cl-] [trihexyl(tetradecyl)phosphonium chloride]: 0.161
CCCCCCCCn1cc[n+](C)c1.O=S(=O)([N-]S(=O)(=O)C(F)(F)F)C(F)(F)F: 0.128
CCOS(=O)(=O)[O-].CCn1cc[n+](C)c1 [1-ethyl-3-methylimidazolium ethyl sulfate]: 0.182
CCCCn1cc[n+](C)c1.O=S(=O)([O-])C(F)(F)F [1-butyl-3-methylimidazolium trifluoromethanesulfonate]: 0.147
CCn1cc[n+](C)c1.O=S(=O)([N-]S(=O)(=O)C(F)(F)F)C(F)(F)F: 0.13
CCCC[N+]1(C)CCCC1.FC(F)(F)C(F)(F)[P-](F)(F)(F)(C(F)(F)C(F)(F)F)C(F)(F)C(F)(F)F: 0.107
CCCCCCCCCCn1cc[n+](C)c1.O=S(=O)([N-]S(=O)(=O)C(F)(F)F)C(F)(F)F: 0.132
